- Test system: T-47D breast
- protocol-summary: NCI-60 one-dose screen, 48 h
- measurement-context: 10 µM unless noted
The panel holds about 83,000 compounds, 20% with a hit somewhere; the sample as a whole holds those more often. Calls of active or inactive are those of the source. The calls were made as follows: active = growth percent below 10; inactive = the rest.
Output constraint: value belongs to active, inactive

Just curious, what result did Nc1nn2c(-c3cc4cc(Br)ccc4oc3=O)ccnc2c1N=Nc1ccccc1 get here? inactive

Just curious, what result did CN(C)c1nc(NCCNS(=O)(=O)c2ccc(C(=O)/C=C/c3ccc(F)cc3)cc2)nc(N2CCOCC2)n1 get here? inactive

Just curious, what result did CC1CCc2c(sc3nc(SCC(=O)c4cccc([N+](=O)[O-])c4)n(-c4ccccc4)c(=O)c23)C1 (stereo unspecified) get here? inactive

Just curious, what result did COc1cc(/C=C/C(=O)c2ccc(S(=O)(=O)NCCNc3nc(N(C)C)nc(N4CCOCC4)n3)cc2)cc(OC)c1OC get here? inactive

Just curious, what result did Clc1ccc(Nc2nnc(-c3c[nH]c4ccccc34)o2)cc1 get here? inactive

Just curious, what result did Nc1cc(-c2c[nH]c3ccc(Cl)cc23)nc2cc(-c3c[nH]c4ccccc34)nn12 get here? active

Just curious, what result did Cc1ccc(C(=O)Nc2cc(-c3ccncc3)cc(C(F)(F)F)c2)cc1C#Cc1cnc2cccnn12 get here? inactive

Just curious, what result did COC(=O)c1cc(C(=O)C(C)(C)C)n2c3ccccc3c3ccccc3c12 get here? inactive

Value source: PubChem BioAssay (NCI)
